- testTarget: recombinant IL4I1 (Homo sapiens (Human), UniProt Q96RQ9)
- Sequence (Q96RQ9 22-567): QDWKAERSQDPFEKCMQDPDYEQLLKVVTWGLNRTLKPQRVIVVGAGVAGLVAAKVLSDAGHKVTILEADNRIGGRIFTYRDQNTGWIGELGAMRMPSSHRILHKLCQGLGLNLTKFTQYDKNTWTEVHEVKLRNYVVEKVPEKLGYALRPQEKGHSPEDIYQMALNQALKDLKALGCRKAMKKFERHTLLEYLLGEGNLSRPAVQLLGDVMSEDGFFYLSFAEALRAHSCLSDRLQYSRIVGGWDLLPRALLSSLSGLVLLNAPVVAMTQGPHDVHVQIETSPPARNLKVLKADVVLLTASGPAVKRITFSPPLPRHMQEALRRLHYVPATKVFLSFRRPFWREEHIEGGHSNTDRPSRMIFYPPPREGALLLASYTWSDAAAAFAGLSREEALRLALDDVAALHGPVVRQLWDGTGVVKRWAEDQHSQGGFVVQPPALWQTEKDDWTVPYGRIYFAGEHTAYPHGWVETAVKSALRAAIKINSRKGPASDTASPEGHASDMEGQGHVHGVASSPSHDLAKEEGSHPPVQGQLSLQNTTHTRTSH
- runDescription: IL4I1 Enzymatic Assay (Amplex Red/HRP coupled H2O2 detection)
- conditionsUsed: 1 nM IL4I1, 1 mM each Phe/Tyr/Trp, four-hour pre-incubation, 120 minutes reaction, top compound concentration of 10000 nM
experimentalEndpoint: EC50 (nM)

Worked examples follow.
compound: CC(=O)NCc1cccc(Cc2cc3ccccc3[nH]c2=O)c1 [Example 128]
readoutUnit: nM
quantitativeResult: 30.4
//
compound: Cc1nc(C)c(Cc2cc3ccccc3[nH]c2=O)s1 [Example 134]
readoutUnit: nM
quantitativeResult: 5.1
//
compound: COc1cc(CNS(C)(=O)=O)ccc1Cc1cc2ccccc2[nH]c1=O [Example 74]
readoutUnit: nM
quantitativeResult: 6.9

a: O=c1[nH]c2ccccc2cc1Cc1cnc(N2CCCC2)s1 [Example 139]
b: O=c1[nH]c2ccccc2cc1Cc1ccc(OCC2CC2)nc1 [Example 88]
c: Cc1onc(-c2nnc(Cc3cc4ccccc4[nH]c3=O)o2)c1C [Example 14]
Task: Rank by EC50 (largest to smallest). Give your ranking as a list of the labels in the requested order.
Result: c, a, b
